Tested on: Spontaneously Hypertensive Rats
protocol.notes: Test 1: antihypertensive effects (systolic tail artery blood pressure) and heart rate in spontaneously hypertensive rats, oral
Type: in vivo, rat (male, SHR)
study.conditions: SHR, oral 1 mg/Kg, maximum value
measured.parameter: Change (%) in heart rate

Can you look up the measured Change (%) in heart rate of CCN1CCC(=O)c2cnc(N3CCN(c4nc(N)c5cc(OC)c(OC)cc5n4)CC3)nc21 for me? +7.4%

Likewise for CCOC(=O)c1cnc(N2CCN(c3nc(N)c4cc(OC)c(OC)cc4n3)CC2)nc1N(C)C ? +13.5%

Likewise for CCOC(=O)c1cnc(N2CCN(c3nc(N)c4cc(OC)c(OC)cc4n3)CC2)nc1N(CC)CC ? +9.8%

Likewise for CCNC(=O)c1cnc(N2CCN(c3nc(N)c4cc(OC)c(OC)cc4n3)CC2)nc1CC ? +7.9%

Likewise for COc1cc2nc(N3CCN(c4ncc5c(n4)CN(CCN(C)C)C5=O)CC3)nc(N)c2cc1OC ? +7.1%

Likewise for COc1cc2nc(N3CCN(C(=O)c4ccco4)CC3)nc(N)c2cc1OC [Prazosin, prazosin, reference compound] ? +8.0%

Likewise for COc1cc2nc(N3CCN(c4ncc5c(n4)CCCC5=O)CC3)nc(N)c2cc1OC ? +17.5%

Likewise for COc1cc2nc(N3CCN(c4ncc(C(=O)NCc5ccccc5)c(C)n4)CC3)nc(N)c2cc1OC ? +7.9%

----------
Tested on: Spontaneously Hypertensive Rats
protocol.notes: Test 1: antihypertensive effects (systolic tail artery blood pressure) and heart rate in spontaneously hypertensive rats, oral
Type: in vivo, rat (male, SHR)
study.conditions: SHR, oral 1 mg/Kg, maximum value
measured.parameter: Change (%) in heart rate

Can you look up the measured Change (%) in heart rate of CCn1cc(C)c2nc(N3CCN(c4nc(N)c5cc(OC)c(OC)cc5n4)CC3)ncc2c1=O for me? +7.0%

Likewise for CCn1ccc2nc(N3CCN(c4nc(N)c5cc(OC)c(OC)cc5n4)CC3)ncc2c1=O ? +4.1%

Likewise for COc1cc2nc(N3CCN(c4ncc5c(n4)CN(C)C5=O)CC3)nc(N)c2cc1OC ? +12.0%

Likewise for CCCC(=O)N1CCCN(c2nc(N)c3cc(OC)c(OC)cc3n2)CC1 [Example E-643, Bunazosin, reference compound] ? +8.8%

----------
System: Spontaneously Hypertensive Rats
protocol.notes: Test 1: antihypertensive effects (systolic tail artery blood pressure) and heart rate in spontaneously hypertensive rats, oral
Format: in vivo, rat (male, SHR)
study.conditions: Rattus norvegicus; SHR, oral 1 mg/Kg, 3 hours; read-out: Antihypertensive effects, change (%) in blood pressure, 3 hours later
measured.parameter: change in vivo at 1 mg/kg (%)
Field format: number, assumed %, no unit text.

Can you look up the measured change in vivo at 1 mg/kg of CCn1ccc2nc(N3CCN(c4nc(N)c5cc(OC)c(OC)cc5n4)CC3)ncc2c1=O for me? -17.3

Likewise for CCn1ccc2nc(N3CCN(c4nc(N)c5cc(OC)c(OC)cc5n4)CC3)ncc2c1=S ? -8.9

Likewise for COc1cc2nc(N3CCN(c4ncc5c(=O)n(C)[nH]c5n4)CC3)nc(N)c2cc1OC.Cl [Example 83, hydrochloride] ? -4.4

Likewise for CCNc1nc(N2CCN(c3nc(N)c4cc(OC)c(OC)cc4n3)CC2)ncc1C(=O)N(CC)CC ? -28.6

Likewise for CCN1C(=O)Cc2cnc(N3CCN(c4nc(N)c5cc(OC)c(OC)cc5n4)CC3)nc21 ? -15.3

Likewise for CCN(CC)C(=O)c1cnc(N2CCN(c3nc(N)c4cc(OC)c(OC)cc4n3)CC2)nc1SC ? -31.3

Likewise for COc1cc2nc(N3CCN(c4ncc5ccccc5n4)CC3)nc(N)c2cc1OC ? -17.5

Likewise for CCOC(=O)c1cnc(N2CCN(c3nc(N)c4cc(OC)c(OC)cc4n3)CC2)nc1N ? -11.4

----------
So I've got a bunch of compounds here, and I need their change in vivo at 1 mg/kg values.
Tested on: Spontaneously Hypertensive Rats
protocol.notes: Test 1: antihypertensive effects (systolic tail artery blood pressure) and heart rate in spontaneously hypertensive rats, oral
Assay type: in vivo, rat (male, SHR)
study.conditions: Rattus norvegicus; SHR, oral 1 mg/Kg, 3 hours; read-out: Antihypertensive effects, change (%) in blood pressure, 3 hours later
Procedure: The antihypertensive effects of the certain compounds of this invention were studied in the following manner. Among male, spontaneously hypertensive rats (SHRs) of 20 weeks of age or older and 350-430 g heavy all of which had developed hypertension, those having systolic blood pressures of 180 mmHg or higher were used in groups, each of which was constituted of 3-4 of the rats. […] Besides, heart rates were also measured simultaneously. […]

Reported change in vivo at 1 mg/kg for Spontaneously Hypertensive Rats, given CCOC(=O)c1cnc(N2CCN(c3nc(N)c4cc(OC)c(OC)cc4n3)CC2)nc1NC(C)C [Example 59] ? -23.9%

Likewise for CCOC(=O)c1cnc(N2CCN(c3nc(N)c4cc(OC)c(OC)cc4n3)CC2)nc1N(C)C [Example 56] ? -22.4%

Likewise for CCn1cc(C#N)c2nc(N3CCN(c4nc(N)c5cc(OC)c(OC)cc5n4)CC3)ncc2c1=O [Example 13] ? -3.9%

Likewise for COCCn1ccc2nc(N3CCN(c4nc(N)c5cc(OC)c(OC)cc5n4)CC3)ncc2c1=O [Example 8] ? -9.5%

Likewise for CCN1CCc2nc(N3CCN(c4nc(N)c5cc(OC)c(OC)cc5n4)CC3)ncc2C1=O [Example 17] ? -20.2%

Likewise for CCN(CC)C(=O)c1cnc(N2CCN(c3nc(N)c4cc(OC)c(OC)cc4n3)CC2)nc1NC [Example 77] ? -32.9%

Likewise for CCn1cc(C=O)c2nc(N3CCN(c4nc(N)c5cc(OC)c(OC)cc5n4)CC3)ncc2c1=O [Example 14] ? -4.8%

Likewise for COC(=O)c1cnc(N2CCN(c3nc(N)c4cc(OC)c(OC)cc4n3)CC2)nc1NC(C)C [Example 62] ? -24%

Likewise for CCCn1ccc2nc(N3CCN(c4nc(N)c5cc(OC)c(OC)cc5n4)CC3)ncc2c1=O [Example 5] ? -6.3%

Likewise for CCCN(CCC)C(=O)c1cnc(N2CCN(c3nc(N)c4cc(OC)c(OC)cc4n3)CC2)nc1NCC [Example 80] ? -26%

Likewise for COc1cc2nc(N3CCN(c4ncc5c(n4)CN(CCN(C)C)C5=O)CC3)nc(N)c2cc1OC [Example 86] ? 0%

Likewise for COc1cc2nc(N3CCN(c4ncc5c(=O)n(Cc6ccccc6)ccc5n4)CC3)nc(N)c2cc1OC [Example 10] ? -14.4%

Likewise for COc1cc2nc(N3CCN(c4ncc(C(=O)NCc5ccccc5)c(C)n4)CC3)nc(N)c2cc1OC [Example 44] ? 0%

Likewise for COc1cc2nc(N3CCN(c4ncc5c(n4)CCCC5=O)CC3)nc(N)c2cc1OC [Example 33] ? -27%

----------
Tested on: Spontaneously Hypertensive Rats
protocol.notes: Test 1: antihypertensive effects (systolic tail artery blood pressure) and heart rate in spontaneously hypertensive rats, oral
Type: in vivo, rat (male, SHR)
study.conditions: SHR, oral 1 mg/Kg, maximum value
So I've got a bunch of compounds here, and I need their Change (%) in heart rate values.

Reported Change (%) in heart rate for Spontaneously Hypertensive Rats, given CCn1ccc(=O)c2cnc(N3CCN(c4nc(N)c5cc(OC)c(OC)cc5n4)CC3)nc21 ? +5.7%

Likewise for CCN(CC)C(=O)c1cnc(N2CCN(c3nc(N)c4cc(OC)c(OC)cc4n3)CC2)nc1C ? +5.2%

Likewise for COc1cc2nc(N3CCN(c4ncc(C(=O)Nc5ccccc5)c(C)n4)CC3)nc(N)c2cc1OC ? +5.7%

Likewise for COc1cc2nc(N3CCN(c4ncc5c(n4)N(C(C)C)C(=O)C5)CC3)nc(N)c2cc1OC ? +11.7%

Likewise for CCn1ccc2nc(N3CCN(c4ncc5cc(OC)c(OC)cc5n4)CC3)ncc2c1=O ? +5.8%

Likewise for CCCN1Cc2nc(N3CCN(c4nc(N)c5cc(OC)c(OC)cc5n4)CC3)ncc2C1=O ? +9.8%

Likewise for COc1cc2nc(N3CCN(c4ncc5c(n4)CN(C4CCCCC4)C5=O)CC3)nc(N)c2cc1OC ? +8.2%

Likewise for COCCN1Cc2nc(N3CCN(c4nc(N)c5cc(OC)c(OC)cc5n4)CC3)ncc2C1=O ? +17.7%

Likewise for CCCCN1Cc2nc(N3CCN(c4nc(N)c5cc(OC)c(OC)cc5n4)CC3)ncc2C1=O ? +8.3%

Likewise for COc1cc2nc(N3CCN(c4ncc5c(n4)CC(c4ccccc4)NC5=O)CC3)nc(N)c2cc1OC (stereo not shown) ? +2.9%

Likewise for COc1cc2nc(N3CCN(c4ncc5c(=O)n(C)[nH]c5n4)CC3)nc(N)c2cc1OC.Cl ? +5.6%

Likewise for CCn1cc(C=O)c2nc(N3CCN(c4nc(N)c5cc(OC)c(OC)cc5n4)CC3)ncc2c1=O ? +7.3%

Likewise for COc1cc2nc(N3CCN(c4ncc5c(=O)n(C6CC6)ccc5n4)CC3)nc(N)c2cc1OC ? +5.7%

Likewise for CCn1ccc2nc(N3CCN(c4nc(N)c5cc(OC)c(OC)c(OC)c5n4)CC3)ncc2c1=O.Cl ? +3.8%

Likewise for COc1cc2nc(N3CCN(c4nc(N)c5cc(OC)c(OC)cc5n4)CC3)nc(N)c2cc1OC ? +8.6%

Likewise for COc1cc2nc(N3CCN(c4ncc5c(=O)n(Cc6ccccc6)ccc5n4)CC3)nc(N)c2cc1OC ? +5.2%

Where these numbers come from: patent US4734418A
